Below, each entry is listed alongside its reported melting point.

Compound | Measured result
CCc1nn(-c2ccccc2Br)c2nc(Cc3cccc(OC)c3)[nH]c(=O)c12 [Example 151] | 178 to 180 °C
CCc1nn(-c2c(Cl)cc(Cl)cc2Cl)c2nc(Cc3cc(OC)c(OC)c(OC)c3)[nH]c(=O)c12 [Example 24] | 224 to 226 °C
CCc1nn(-c2c(Cl)cc(C(=O)O)cc2Cl)c2nc(Cc3ccc(N)cc3)[nH]c(=O)c12 [Example 205] | 226 to 228 °C
CC(C)c1[nH]n(-c2c(Cl)cc(Cl)cc2Cl)c2nc(Cc3ccc(N(C(=O)OC(C)(C)C)C(=O)[C@@H]4CCCN4)cc3)nc(=O)c1-2 [Example 113] | 225 to 226 °C

Summary for this compound, CCc1nn(-c2c(Cl)cc(Cl)cc2Cl)c2nc(Cc3c[nH]c4ccc(OC)cc34)[nH]c(=O)c12 [Example 40] : melting point is 295 to 298 °C

Summary for this compound, COc1cc(Cc2nc3c(c(C(C)C)nn3-c3c(Cl)cc(Cl)cc3Cl)c(=O)[nH]2)ccc1N [Example 54] : melting point is 238 to 240 °C

Summary for this compound, COc1ccc(Cc2nc3c(c(SC)nn3-c3ccccc3Cl)c(=O)[nH]2)cc1 [Example 150] : melting point is 227 to 228 °C

---

Below, each entry is listed alongside its reported melting point.

Compound | melting point
CCc1nn(-c2c(Cl)cc(C(=O)O)cc2Cl)c2nc(Cc3ccc(OC)cc3)[nH]c(=O)c12 | 292 to 294 °C
Cc1cc(Cl)cc(Cl)c1-n1nc(C(C)C)c2c(=O)[nH]c(Cc3ccc(N)cc3)nc21 | 212 to 213 °C
COc1ccc(Cc2nc3c(c(C(F)(F)F)nn3-c3c(Cl)cc(Cl)cc3Cl)c(=O)[nH]2)cc1 | 263 to 265 °C
CSc1nn(-c2c(Cl)cc(Cl)cc2Cl)c2nc(Cc3ccc4c(c3)OCO4)[nH]c(=O)c12 | 257 to 260 °C
CCOC(=O)Cc1ccc(Cc2nc3n(-c4c(Cl)cccc4Cl)[nH]c(C(C)C)c-3c(=O)n2)cc1 | 168 to 169 °C

Summary for this compound, COc1cccc(Cc2nc3c(c(SC)nn3-c3c(F)cccc3Cl)c(=O)[nH]2)c1 : melting point is 244 to 245 °C

Summary for this compound, CSc1nn(-c2c(F)cccc2Cl)c2nc(Cc3ccc(O)cc3)[nH]c(=O)c12 : melting point is 267 to 268 °C

Summary for this compound, CSc1nn(-c2c(Cl)cc(Br)cc2Cl)c2nc(Cc3ccc(O)cc3)[nH]c(=O)c12 : melting point is 255 to 256 °C

Summary for this compound, COc1ccc(Cc2nc3c(c(SC)nn3-c3c(F)cccc3Cl)c(=O)[nH]2)cc1 : melting point is 193 to 194 °C

Summary for this compound, CNc1ccc(Cc2nc3c(c(C(C)C)nn3-c3c(Cl)cc(Cl)cc3Cl)c(=O)[nH]2)cc1 : melting point is 244 to 246 °C

Summary for this compound, COc1ccc(Cc2nc3c(c(SC)nn3-c3c(C)cc(Cl)cc3Cl)c(=O)[nH]2)cc1 : melting point is 252 to 255 °C

Summary for this compound, CCc1nn(-c2c(Cl)cc(Cl)cc2Cl)c2nc(Cc3cccc(CC(=O)O)c3)[nH]c(=O)c12 : melting point is 192 to 194 °C

Summary for this compound, CCc1[nH]n(-c2c(Cl)cc(Cl)cc2Cl)c2nc(C(O)c3ccccc3)nc(=O)c1-2 (racemic) : melting point is 246 to 248 °C

---

Readout kind: melting point

Examples with answers:
Compound | melting point
CCc1nn(-c2c(Cl)cccc2Cl)c2nc(Cc3cccc(O)c3)[nH]c(=O)c12 [Example 173] | 242 to 244 °C
CC(C)c1[nH]n(-c2c(Cl)cccc2Cl)c2nc(Cc3ccc(CC(=O)NCCN(C)C)cc3)nc(=O)c1-2 [Example 124] | 170 to 172 °C
CCc1nn(-c2c(Cl)cccc2Cl)c2nc(Cc3ccc(O)cc3)[nH]c(=O)c12 [Example 171] | 262 to 263 °C
COc1ccc(Cc2nc3c(c(SC)nn3-c3c(Cl)cc(Cl)cc3Cl)c(=O)[nH]2)cc1 [Example 8] | 263 to 267 °C
CCc1nn(-c2c(Cl)cc(Br)cc2Cl)c2nc(Cc3cccc(O)c3)[nH]c(=O)c12 [Example 170] | 242 to 244 °C

Now examine the next entry.
Summary for this compound, CCc1nn(-c2c(C)cccc2Cl)c2nc(Cc3cccc(OC)c3)[nH]c(=O)c12 [Example 193] : melting point is 188 to 190 °C

---

Below, each entry is listed alongside its reported melting point.

Examples with answers:
Compound | Readout kind | Measured result
CCc1nn(-c2c(Cl)cc(C(F)(F)F)cc2Cl)c2nc(Cc3cccc(OC)c3)[nH]c(=O)c12 [Example 166] | melting point | 192 to 193 °C
COc1cccc(Cc2nc3n(-c4c(Cl)cc(C=O)cc4Cl)[nH]c(C(C)C)c-3c(=O)n2)c1 [Example 138] | melting point | 212 to 214 °C

Summary for this compound, CSc1[nH]n(-c2c(Cl)cc(Cl)cc2Cl)c2nc(Cc3cccc(O)c3)nc(=O)c1-2 [Example 2] : melting point is 264 to 266 °C
